- Test system: Nakaseomyces glabratus
- assay-text: Antifungal activity against Candida glabrata 20/I after 48 hrs by broth microdilution method
- Assay type: functional
parameter: MIC

Consider the following illustrative entries.
INSERT INTO measurements (smiles_representation, target_of_assay, parameter, measured_value) VALUES
  ('O=[N+]([O-])c1cc(-n2nnnc2SCc2ccc(Cl)c(Cl)c2)cc([N+](=O)[O-])c1', 'Nakaseomyces glabratus', 'MIC', '> 500 µM'),
  ('O=[N+]([O-])c1cc(-c2nnc(SCc3ccc(Cl)c(Cl)c3)o2)cc([N+](=O)[O-])c1', 'Nakaseomyces glabratus', 'MIC', '> 125 µM'),
  ('O=[N+]([O-])c1cc(-c2nnc(SCc3ccc(Cl)cc3)o2)cc([N+](=O)[O-])c1', 'Nakaseomyces glabratus', 'MIC', '> 125 µM'),
  ('O=[N+]([O-])c1cc(-c2nnc(SCc3ccccc3Cl)o2)cc([N+](=O)[O-])c1', 'Nakaseomyces glabratus', 'MIC', '> 500 µM'),
  ('O=[N+]([O-])c1cc(-n2nnnc2SCc2ccc(Cl)cc2)cc([N+](=O)[O-])c1', 'Nakaseomyces glabratus', 'MIC', '> 500 µM');

Ask: Requested read-out MIC, target or system Nakaseomyces glabratus, entry O=[N+]([O-])c1cc(-c2nnc(SCc3ccc(Br)cc3)o2)cc([N+](=O)[O-])c1
Reply: > 125 µM

Ask: Same read-out for COc1ccc(CSc2nnc(-c3cc([N+](=O)[O-])cc([N+](=O)[O-])c3)o2)cc1 ?
Reply: > 500 µM

###

- Test system: Mycobacterium avium
- assay-text: Antimycobacterial activity against Mycobacterium avium CNCTC My 330/88 after 21 days by micromethod
- Assay type: functional
- settings: CNCTC My 330/88, 504 h
// reported MIC for each item listed

INSERT INTO assay_data (smiles_representation, measured_value) VALUES
  ('CC(=O)Nc1cc(-c2nnc(SCc3ccc(Br)cc3)o2)cc([N+](=O)[O-])c1', '> 500 µM');

Ask: Fill in: MIC of COc1ccc(CSc2nnc(-c3cc(NC(C)=O)cc([N+](=O)[O-])c3)o2)cc1 is ___
Reply: > 500 µM

Ask: Same read-out for O=[N+]([O-])c1cc(-c2nnc(SCc3ccc(Cl)cc3)o2)cc(C(F)(F)F)c1 ?
Reply: > 250 µM

Ask: Same read-out for O=[N+]([O-])c1cc(-c2nnc(SCc3ccccc3)o2)cc(C(F)(F)F)c1 ?
Reply: > 250 µM

Ask: Same read-out for COc1ccc(CSc2nnc(-c3cc([N+](=O)[O-])cc(C(F)(F)F)c3)o2)cc1 ?
Reply: > 250 µM

###

- Tested on: Mycobacterium avium
- assay-text: Antimycobacterial activity against Mycobacterium avium CNCTC My 330/88 after 14 days by micromethod
- Assay type: functional
- settings: CNCTC My 330/88, 336 h
// reported MIC for each item listed
Unit µM implied. Number only.

Consider the following illustrative entries.
INSERT INTO measurements (smiles_representation, unit_string, measured_value) VALUES
  ('O=[N+]([O-])c1cc(-c2nnc(S)o2)cc([N+](=O)[O-])c1', 'µM', 62),
  ('O=[N+]([O-])c1cc(-n2nnnc2SCc2ccccc2)cc([N+](=O)[O-])c1', 'µM', 4),
  ('O=[N+]([O-])c1cc(-c2nnc(SCc3cccc(Cl)c3)o2)cc([N+](=O)[O-])c1', 'µM', 4);

Ask: Fill in: MIC of O=[N+]([O-])c1cc(-n2nnnc2SCc2ccc(Cl)c(Cl)c2)cc([N+](=O)[O-])c1 is ___
Reply: 8
